The origin of these recorded values is PubChem BioAssay (NCI).

Test system: PC-3 prostate
measurementDescription: NCI-60 one-dose screen, 48 h
testSettings: 10 µM unless noted
Compounds without any hit were thinned out: in the full panel of roughly 83,000, 20% have a hit. Active and inactive are the calls of the source. The calls were made as follows: active = growth percent below 10; inactive = the rest.
Classes used: active, inactive

| compound | labelValue |
| --- | --- |
| CCO/C=N/C1=C(C#N)C(c2ccc(Cl)cc2)c2c(c3ccccc3n(C)c2=O)O1 (stereo unspecified) | inactive |
| CC(C)(C)n1cc(-c2ccnc(NCCCNS(=O)(=O)c3ccc(C(F)(F)F)cc3)c2)c(-c2cccc(O)c2)n1 | inactive |
| S=C1CC(=S)NC(=S)N1 | inactive |
| O=c1c2sc3ncccc3c2nnn1-c1ccccc1 | inactive |
| O=C(Nc1cccc(-n2cc(-c3ccncc3)c(-c3ccc(Cl)c(O)c3)n2)c1)Nc1cccc(C(F)(F)F)c1 | active |
| N=C(N)c1ccc(-c2cc(Cl)cc(Cl)c2)cn1 | inactive |

* * *

Test system: UACC-62 melanoma
measurementDescription: NCI-60 one-dose screen, 48 h (100 = growth as untreated, 0 = no growth, -100 = all killed)
testSettings: 10 µM unless noted
The panel holds about 83,000 compounds, 20% with a hit somewhere; the sample as a whole holds those more often.
Recorded measurements of growth, one per entry

| compound | testedSystem | growth [%] |
| --- | --- | --- |
| CC(=O)Nc1scc[n+]1Cc1ccccc1 | UACC-62 melanoma | 114 |
| O=S(=O)(NCCNc1nccc(-c2c(-c3cccc(O)c3)nc3sccn23)n1)c1ccc(F)cc1 | UACC-62 melanoma | 16.7 |
| O=C(CN1CCN(c2cc3c(cc2F)c(=O)c(C(=O)N/N=C/c2ccccc2O)cn3C2CC2)CC1)N/N=C\c1ccccc1O | UACC-62 melanoma | 0.0993 |
| O=c1ccn(-c2ncnc3nc[nH]c23)cc1 | UACC-62 melanoma | 92.8 |
| FC(F)(F)c1ccccc1-c1cn2c(ccc3ccccc32)n1 | UACC-62 melanoma | 55.4 |
| O=C(NNC(=O)N1c2ccccc2C=Cc2ccccc21)c1ccccc1 | UACC-62 melanoma | 101 |
| N=C(N)c1ccc(-c2ccc(-c3ccc4ccccc4c3)s2)cc1 | UACC-62 melanoma | 96.9 |
| CC(C)(C)OC(=O)NC(CSCc1ccccc1)C(=O)ON1C(=O)CCC1=O (stereo not given) | UACC-62 melanoma | 112 |
| O=C(Nc1ccc(Cl)c(Cl)c1)NS(=O)(=O)c1cnccc1Oc1ccc(F)cc1 | UACC-62 melanoma | 59.2 |
| Clc1cc(Cl)cc(-c2ccc(-c3ccc(/C=N/NC4=NCCN4)cc3)s2)c1 | UACC-62 melanoma | 68.1 |

* * *

Test system: HCT-15 colon
measurementDescription: NCI-60 one-dose screen, 48 h
testSettings: 10 µM unless noted
Compounds without any hit were thinned out: in the full panel of roughly 83,000, 20% have a hit. The source made the active and inactive calls. Rule for the calls: active = growth percent below 10; inactive = the rest.
Classes used: Y (active), N (inactive)

| compound | labelValue |
| --- | --- |
| COc1ccc(-n2c(=O)sc3c(Cl)nc(C)nc32)c(OC)c1 | N |
| COc1cccc(-c2cc3c(O)cc(C#N)cc3[nH]2)c1 | N |
| COc1cccc(-c2nc3sccn3c2-c2ccnc(NCCCNS(=O)(=O)c3ccc(F)cc3)c2)c1 | N |
| O=C(c1c[nH]c(=O)c(-c2ccccc2)c1)c1ccccc1O | N |
| COc1ccc(S(=O)(=O)Nc2cc(/C=C\c3cc(OC)c(OC)c(OC)c3)cc(OC)c2OC)cc1 | N |
| COc1ccc(-c2c(N)n[nH]c2-c2cc(OC)c(OC)c(OC)c2)cc1 | N |
| O=C(O)COc1ccc(-c2cssc2=S)cc1 | N |
| N#C/C(=C1C=C/C(=N/O)C(Cl)=C/1)c1ccc(Cl)cc1 | N |
| COc1ccc(/C=C\c2cc(OC)c(OC)c(OC)c2)cc1OC(=O)c1cccc(Cn2cc(CCOC(=O)c3cccc(Cn4nnc5c4C(=O)c4ccccc4C5=O)c3)nn2)c1 | N |
| CC1(c2ccc(Cl)cc2)OC(=O)CC(=O)O1 | N |
| C=C1CCC2C3(C)COC(c4ccccc4)OC3CCC2(C)C1/C=C/C1=CCOC1=O (stereo not given) | N |
| CN1C=CN(Cc2ccc(-c3ccccn3)nc2)[CH-]1.CN1C=CN(Cc2ccc(-c3ccccn3)nc2)[CH-]1.[Au+3] | N |
| Nc1cccc(-c2nc3sccn3c2-c2ccnc(NCCNS(=O)(=O)c3ccc(C(F)(F)F)cc3)n2)c1 | N |
| COc1cc(-c2nn(-c3cccc(NC(=O)Nc4cccc(C(F)(F)F)c4)c3)cc2-c2ccncc2)ccc1Cl | Y |
| COc1ccc(-c2cc(-c3ccccc3)nc(SCCCC(=O)NO)n2)cc1OC | N |
| O=C1CS/C(=N\Nc2cc(=O)[nH]c3ccccc23)N1c1ccccc1 | N |
| COc1ccc(C2=C(c3cc(OC)c(OC)c(OC)c3)C(=O)CC2)cc1 | N |
| O=C1Nc2ccc3c(c2/C1=C\c1cc2c(cc1Br)OCO2)OCO3 | N |
| CC1CCC(C)N(C)C1 (stereo not given) | N |
| COc1cc(/C=C/c2cc(/C=C/c3ccc(O)c(OC)c3)n(C(N)=O)n2)ccc1O | Y |
